As shown below, each of these compounds has a reported inhibition at 4 µM value.
Experimental System: Or47a/Or83b (Drosophila melanogaster, UniProt P81921+Q9VNB5)
Construct: Full-length cDNAs for mosquito (Anopheles gambiae) odorant receptor (OR1, OR2, OR7, OR8, OR28), and fly (Drosophila melanogaster) odorant receptor (Or47a, Or83b); expressed in transfected cells
Sequence (P81921 whole entry): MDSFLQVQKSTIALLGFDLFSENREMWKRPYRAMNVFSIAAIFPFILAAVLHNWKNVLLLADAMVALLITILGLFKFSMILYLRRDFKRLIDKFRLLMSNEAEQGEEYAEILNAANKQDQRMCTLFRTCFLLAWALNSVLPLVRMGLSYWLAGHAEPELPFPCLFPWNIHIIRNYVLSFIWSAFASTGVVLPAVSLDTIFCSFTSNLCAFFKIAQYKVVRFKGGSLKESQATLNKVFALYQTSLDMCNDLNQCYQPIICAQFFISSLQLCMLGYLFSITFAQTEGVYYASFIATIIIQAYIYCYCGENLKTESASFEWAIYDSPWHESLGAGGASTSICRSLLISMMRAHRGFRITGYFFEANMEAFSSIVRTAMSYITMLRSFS
Sequence (Q9VNB5 whole entry): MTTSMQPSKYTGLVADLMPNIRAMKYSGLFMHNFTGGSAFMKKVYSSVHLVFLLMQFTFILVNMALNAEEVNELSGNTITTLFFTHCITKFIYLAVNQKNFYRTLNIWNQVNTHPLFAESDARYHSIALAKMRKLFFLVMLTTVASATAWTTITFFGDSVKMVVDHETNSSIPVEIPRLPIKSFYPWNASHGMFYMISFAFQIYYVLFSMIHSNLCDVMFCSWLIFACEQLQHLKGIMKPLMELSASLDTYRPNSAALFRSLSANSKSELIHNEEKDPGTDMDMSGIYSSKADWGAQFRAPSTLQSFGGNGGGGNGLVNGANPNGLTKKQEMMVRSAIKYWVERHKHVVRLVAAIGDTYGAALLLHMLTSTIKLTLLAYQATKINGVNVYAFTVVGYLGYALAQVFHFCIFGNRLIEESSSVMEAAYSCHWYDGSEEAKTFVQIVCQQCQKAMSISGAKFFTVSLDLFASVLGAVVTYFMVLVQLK
Method: Ca2+-imaging of stable Flip-In T-Rex cell line Or47a/Or83b
Assay type: cell-based
Run Conditions: compound applied at 4 μM; read-out: Percent Inhibition OR47a OR83b

# annotated cases, reported inhibition at 4 µM shown
>>> meas_value("CCOc1ccccc1C(=O)NNC(=O)COc1cc(C)cc(C)c1")
"> 75%"
>>> meas_value("COCCN(Cc1c(-c2ccccc2)noc1N1CCSCC1)CC(O)COCc1ccco1 (stereo not drawn)")
"51 to 74%"
>>> meas_value("COc1nc(NC(C)C)nc(NC(C)C)n1")
"51 to 74%"
>>> meas_value("COc1ccc(N2CCN(C(=O)C3CC=CCC3C(=O)NC(c3ccccc3)c3ccccn3)CC2)cc1 (stereo not drawn)")
"26 to 50%"
>>> meas_value("N#Cc1ccccc1C(=O)N1CCOC(COCc2c(Cl)cccc2Cl)C1 (stereo not drawn)")
"51 to 74%"
>>> meas_value("CCOC(=O)C(c1cccc(OC)c1)C1C=CC(NC(=O)c2cccs2)C1 (stereo not drawn)")
"26 to 50%"
>>> meas_value("COc1ccc(-n2c(Cc3ccccc3)nnc2SCCCC(=O)N2CCN(C(=O)c3ccc(C(F)(F)F)cc3)C(C)C2)cc1 (stereo not drawn)")
"26 to 50%"
>>> meas_value("CCOC(=O)c1c(NC(C)=O)c(-c2ccc(OC)cc2)cn1Cc1ccccc1")
"26 to 50%"

# get_value(readout='inhibition at 4 µM', item= CC(NCc1ccccc1)c1nc2ccccc2c(=O)n1-c1ccc(Cl)cc1 (stereo not drawn) )
26 to 50%
